experiment: Conversion rate of salt-form prodrugs to parent compound in mouse plasma; type: in vitro ADME; conditions: conversion to Compound 1, mouse plasma, 37 °C, 1 h
Listed below: Release rate values for each entry.

The reported value for C[C@@]12CC[C@@H]3[C@H](OC(=O)[C@H]3CN3CCC3)[C@@H]3[C@]1(CC[C@@]3(C)O)C2 in terms of Release rate is 6.9%

The reported value for C[C@@]12CC[C@@H]3[C@H](OC(=O)[C@H]3CN3CCC(N4CCCCC4)CC3)[C@@H]3[C@]1(CC[C@@]3(C)O)C2 in terms of Release rate is 6.8%

So, CCN(CC)C[C@@H]1C(=O)O[C@H]2[C@H]1CC[C@@]1(C)C[C@]13CC[C@@](C)(O)[C@H]23 ? Its Release rate was 6.8%

* * *

Entries and their Release rate values follow.
test: Conversion rate of salt-form prodrugs to parent compound in HEPES buffer solution; type: physicochemical; conditions: conversion to Compound 1, HEPES buffer pH 7.4, 37 °C, 4 h
# unit: % | format: bare number

compound: CN(C)C[C@@H]1C(=O)O[C@H]2[C@H]1CC[C@@]1(C)C[C@]13CC[C@@](C)(O)[C@H]23 [compound 41]
Release rate (%): 27.3

Release rate reading for C[C@@]12CC[C@@H]3[C@H](OC(=O)[C@H]3CN3CC4CCCC4C3)[C@@H]3[C@]1(CC[C@@]3(C)O)C2 (some centres unmarked) : 26.2

// sample CCCCN(CCCC)C[C@@H]1C(=O)O[C@H]2[C@H]1CC[C@@]1(C)C[C@]13CC[C@@](C)(O)[C@H]23 , its Release rate was 23.8

# Release rate (compound: CC(C)N(C[C@@H]1C(=O)O[C@H]2[C@H]1CC[C@@]1(C)C[C@]13CC[C@@](C)(O)[C@H]23)C(C)C ) is 23.0

The compound C[C@@]12CC[C@@H]3[C@H](OC(=O)[C@H]3CN3CCNCC3)[C@@H]3[C@]1(CC[C@@]3(C)O)C2 showed Release rate equal to 27.3

Lab note: measured Release rate of C[C@@]12CC[C@@H]3[C@H](OC(=O)[C@H]3CN3CCCCCCC3)[C@@H]3[C@]1(CC[C@@]3(C)O)C2 was 25.4

Value of Release rate reported for the compound C[C@@]12CC[C@@H]3[C@H](OC(=O)[C@H]3CN3CCCCC3)[C@@H]3[C@]1(CC[C@@]3(C)O)C2 is 26.7

Note to self: Release rate recorded for CCN(CC)C[C@@H]1C(=O)O[C@H]2[C@H]1CC[C@@]1(C)C[C@]13CC[C@@](C)(O)[C@H]23 was 24.4

Lab note: measured Release rate of CN(C)C[C@@H]1C(=O)O[C@H]2[C@H]1CC[C@@]1(C)C[C@]13CC[C@@](C)(O)[C@H]23 [compound 20] was 21.7

Sample C[C@@]12CC[C@@H]3[C@H](OC(=O)[C@H]3CN3CCCC3)[C@@H]3[C@]1(CC[C@@]3(C)O)C2 ; Release rate observed: 26.6

According to the records, this compound C[C@@]12CC[C@@H]3[C@H](OC(=O)[C@H]3CN3CCC(N4CCOCC4)CC3)[C@@H]3[C@]1(CC[C@@]3(C)O)C2 displays Release rate of 26.0

The reported Release rate of the compound CCOC(=O)[C@@H]1CCCN1C[C@@H]1C(=O)O[C@H]2[C@H]1CC[C@@]1(C)C[C@]13CC[C@@](C)(O)[C@H]23 was 26.8

For this compound ( C[C@@]12CC[C@@H]3[C@H](OC(=O)[C@H]3CN3CCC4(CC3)CC4)[C@@H]3[C@]1(CC[C@@]3(C)O)C2 ), measured Release rate is 28.3

// recorded Release rate for C[C@@]12CC[C@@H]3[C@H](OC(=O)[C@H]3CN3CCC(N4CCCCC4)CC3)[C@@H]3[C@]1(CC[C@@]3(C)O)C2 : 26.4

Looking up CN(C)C[C@@H]1C(=O)O[C@H]2[C@H]1CC[C@@]1(C)C[C@]13CC[C@@](C)(O)[C@H]23 [compound 42] , I see its Release rate listed as 25.2

// recorded Release rate for C[C@@]12CC[C@@H]3[C@H](OC(=O)[C@H]3CN3CCC3)[C@@H]3[C@]1(CC[C@@]3(C)O)C2 : 26.0

The compound listed as CN(C)C[C@@H]1C(=O)O[C@H]2[C@H]1CC[C@@]1(C)C[C@]13CC[C@@](C)(O)[C@H]23 [compound 21] shows Release rate equal to 18.1

response.value for C[C@@]12CC[C@@H]3[C@H](OC(=O)[C@H]3CN3CCOCC3)[C@@H]3[C@]1(CC[C@@]3(C)O)C2 (field: Release rate) = 26.1

Quick note, Release rate for CCCN(CCC)C[C@@H]1C(=O)O[C@H]2[C@H]1CC[C@@]1(C)C[C@]13CC[C@@](C)(O)[C@H]23 landed at 24.6

Item: C[C@@]12CC[C@@H]3[C@H](OC(=O)[C@H]3CN3CCC4(CCCC4)CC3)[C@@H]3[C@]1(CC[C@@]3(C)O)C2 | Release rate: 27.6

* * *

assay: Conversion rate of salt-form prodrugs to parent compound in mouse plasma; format: in vitro ADME; settings: conversion to Compound 1, mouse plasma, 37 °C, 2 h
Listed below: Release rate values for each entry.
// note: answer is a bare numeric in %

Worked cases, answers included:
compound: C[C@@]12CC[C@@H]3[C@H](OC(=O)[C@H]3CN3CCC(N4CCCCC4)CC3)[C@@H]3[C@]1(CC[C@@]3(C)O)C2
Release rate / %: 13.6
--
compound: C[C@@]12CC[C@@H]3[C@H](OC(=O)[C@H]3CN3CCC3)[C@@H]3[C@]1(CC[C@@]3(C)O)C2
Release rate / %: 14.8
--
compound: CN(C)C[C@@H]1C(=O)O[C@H]2[C@H]1CC[C@@]1(C)C[C@]13CC[C@@](C)(O)[C@H]23 [compound 40]
Release rate / %: 14.2
--
compound: CN(C)C[C@@H]1C(=O)O[C@H]2[C@H]1CC[C@@]1(C)C[C@]13CC[C@@](C)(O)[C@H]23 [compound 39]
Release rate / %: 14.0

Could you now look at the following compound, please?
Lookup result for C[C@@]12CC[C@@H]3[C@H](OC(=O)[C@H]3CN3CCC4(CCCC4)CC3)[C@@H]3[C@]1(CC[C@@]3(C)O)C2 ; measured Release rate: 17.2

* * *

In this section we review reported Release rate values for a set of compounds.
experiment: Conversion rate of salt-form prodrugs to parent compound in mouse plasma; type: in vitro ADME; conditions: conversion to Compound 1, mouse plasma, 37 °C, 8 h
The reply should contain only the number, in %.

compound: CN(C)C[C@@H]1C(=O)O[C@H]2[C@H]1CC[C@@]1(C)C[C@]13CC[C@@](C)(O)[C@H]23 [compound 40]
Release rate / %: 44.0

compound: C[C@@]12CC[C@@H]3[C@H](OC(=O)[C@H]3CN3CCC(N4CCOCC4)CC3)[C@@H]3[C@]1(CC[C@@]3(C)O)C2 [compound 36]
Release rate / %: 43.6

compound: CN(C)C[C@@H]1C(=O)O[C@H]2[C@H]1CC[C@@]1(C)C[C@]13CC[C@@](C)(O)[C@H]23 [compound 39]
Release rate / %: 43.6

compound: CCN(CC)C[C@@H]1C(=O)O[C@H]2[C@H]1CC[C@@]1(C)C[C@]13CC[C@@](C)(O)[C@H]23 [compound 28]
Release rate / %: 40.4

compound: C[C@@]12CC[C@@H]3[C@H](OC(=O)[C@H]3CN3CCOCC3)[C@@H]3[C@]1(CC[C@@]3(C)O)C2 [compound 25]
Release rate / %: 43.8

Sure, the documented Release rate for C[C@@]12CC[C@@H]3[C@H](OC(=O)[C@H]3CN3CC4CCCC4C3)[C@@H]3[C@]1(CC[C@@]3(C)O)C2 (some centres unmarked) [compound 32] is 43.2

// Release rate value for CCN1CCN(C[C@@H]2C(=O)O[C@H]3[C@H]2CC[C@@]2(C)C[C@]24CC[C@@](C)(O)[C@H]34)CC1 [compound 27] : 48.2

Release rate recorded for this compound, C[C@@]12CC[C@@H]3[C@H](OC(=O)[C@H]3CN3CCCCC3)[C@@H]3[C@]1(CC[C@@]3(C)O)C2 [compound 24] , is 47.8

Given item C[C@@]12CC[C@@H]3[C@H](OC(=O)[C@H]3CN3CCC(N4CCCCC4)CC3)[C@@H]3[C@]1(CC[C@@]3(C)O)C2 [compound 35] , the value recorded as its Release rate is 44.8

Form field Release rate, entry C[C@@]12CC[C@@H]3[C@H](OC(=O)[C@H]3CN3CCC3)[C@@H]3[C@]1(CC[C@@]3(C)O)C2 [compound 33] : 42.8

In plain terms, CN(C)C[C@@H]1C(=O)O[C@H]2[C@H]1CC[C@@]1(C)C[C@]13CC[C@@](C)(O)[C@H]23 [compound 21] has a documented Release rate of 39.3

Each recorded value in this set is attributed to patent EP4813381A1.
